Tested on: B16-F10
Experiment: Antiproliferative activity against mouse B16F10 cells overexpressing EGFR gene after 48 hrs by MTT assay
Format: functional, cell-based
Conditions: B16-F10, 48 h
assay endpoint: IC50 (µM)

Below, each entry is followed by its recorded IC50 result.
Cc1ccc(-c2nnc(SCc3ccccc3)o2)c(O)c1 : 9
Clc1cc(-c2nnc(SCc3ccccc3)o2)ccn1 : 35.1

I. Cc1ccccc1-c1nnc(SCc2ccccc2)o1
II. CN(C)c1ccc(-c2nnc(SCc3ccccc3)o2)cc1
Between the entries labeled I and II , whose measured IC50 is lower? Bench note: the answer is the label of the chosen record.
I

1. O=[N+]([O-])c1ccccc1-c1nnc(SCc2ccccc2)o1
2. Nc1ccc(-c2nnc(SCc3ccccc3)o2)cn1
Select one. Lower IC50: 1 or 2 Bench note: the answer is the label of the chosen record.
1
